Target: recombinant PRL-3 (Homo sapiens)
Construct: 6xHis (N, cleaved yes); made in house; host or cells: E. coli One Shot BL21 Star
Test: In vitro phosphatase assay (DiFMUP hydrolysis), PRL-3; also: test concentration or dose not given here
Format: biochemical
Conditions: FDA-approved drug screen; compared to DMSO
Counter-ions that a name gives are not always drawn.
Here the recorded % Phosphatase Activity (compared to DMSO) PRL-3 is given for each entry.
READOUT_NAME: % Phosphatase Activity (compared to DMSO) PRL-3 (%)

> print(dat)
                                    compound  unit.of.measurement  measured
 1  CC(C)CN(C[C@@H](O)[C@H](Cc1ccccc1)NC(=O)O[C@H]1CO[C@H]2OCC[C@H]21)S(=O)(=O)c1ccc(N)cc1.CCO [Darunavir Ethanolate]                    %        80
 2  CO/N=C(\C(=O)N[C@@H]1C(=O)N2C(C(=O)O)=C(COC(N)=O)CS[C@H]12)c1ccco1 [Cefuroxime sodium]                    %        82
 3  Cc1cc(C(C#N)c2ccc(Cl)cc2)c(Cl)cc1NC(=O)c1cc(I)cc(I)c1O (stereo not shown) [Closantel, reference compound]                    %        40
 4  NC[C@H](CC(=O)O)c1ccc(Cl)cc1 [(R)-baclofen]                    %       117
 5  O=C1CCc2ccc(OCCCCN3CCN(c4cccc(Cl)c4Cl)CC3)cc2N1                    %       103
 6  CCCCN1CCCCC1C(=O)Nc1c(C)cccc1C (stereo not shown) [Bupivacaine HCl]                    %        82
 7  Cc1onc(-c2ccccc2Cl)c1C(=O)N[C@@H]1C(=O)N2[C@@H]1SC(C)(C)[C@@H]2C(=O)O [Cloxacillin Sodium]                    %        87
 8                   Oc1c(Br)cc(Br)c2cccnc12                    %        72
 9                   CC(C)(S)[C@@H](N)C(=O)O                    %        97
10  CNNCc1ccc(C(=O)NC(C)C)cc1 [Procarbazine HCl]                    %        87
11                   O=c1[nH]c(=O)c2ccccc2o1                    %        80
12  C[C@]12CC[C@@H]3c4ccc(O)cc4CC[C@H]3[C@@H]1CC[C@@H]2O                    %        84
13  Cc1ccc(C(=O)Nc2ccc(CN3CCN(C)CC3)c(C(F)(F)F)c2)cc1C#Cc1cnc2cccnn12                    %       319
14  CC12CC3CC(C)(C1)CC(N)(C3)C2 [Memantine HCl]                    %        94
15  COc1ccc([C@@H]2Sc3ccccc3N(CCN(C)C)C(=O)[C@@H]2OC(C)=O)cc1 [Diltiazem HCl]                    %       124
16  COc1ccc(CN=c2[nH]c(N3CCC[C@H]3CO)ncc2C(=O)NCc2ncccn2)cc1Cl                    %        97
17  O=C1Nc2ccc(Cl)cc2[C@@](C#CC2CC2)(C(F)(F)F)O1                    %        97
18  Cc1c(-c2ccccc2)oc2c(C(=O)OCCN3CCCCC3)cccc2c1=O [Flavoxate HCl]                    %       113
19  CC#CCn1c(N2CCC[C@@H](N)C2)nc2c1c(=O)n(Cc1nc(C)c3ccccc3n1)c(=O)n2C                    %       100
20  CC(C)COc1ccc(CNC(=O)N(Cc2ccc(F)cc2)C2CCN(C)CC2)cc1                    %        95
21  COCCCOc1ccnc(C[S+]([O-])c2nc3ccccc3[n-]2)c1C.[Na+] (stereo not shown) [Rebeprazole sodium]                    %        78
22  CCCCc1nc(Cl)c(CO)n1Cc1ccc(-c2ccccc2-c2nnn[n-]2)cc1.[K+]                    %        71
23  N=C(N)N/N=C/c1c(Cl)cccc1Cl [Guanabenz Acetate]                    %        68
24  COc1ccc2c(c1)C(=O)N(CCc1ccc(S(=O)(=O)NC(=O)NC3CCCCC3)cc1)C(=O)C2(C)C                    %        86
25  O=C1NCC2(CCN(CCc3ccccc3)CC2)O1 [Fenspiride HCl]                    %       104
26  CN1CCN(C2=Nc3ccccc3Oc3ccc(Cl)cc32)CC1 [Loxapine Succinate]                    %        90
27  COCCCC/C(=N\OCCN)c1ccc(C(F)(F)F)cc1 [Fluvoxamine maleate]                    %        75
28             Nc1nnc(-c2cccc(Cl)c2Cl)c(N)n1                    %        83

----------
Target: recombinant PRL-1 (Homo sapiens)
Construct: 6xHis (N, cleaved yes); made in house; host or cells: E. coli One Shot BL21 Star
Sequence (Q93096 1-173): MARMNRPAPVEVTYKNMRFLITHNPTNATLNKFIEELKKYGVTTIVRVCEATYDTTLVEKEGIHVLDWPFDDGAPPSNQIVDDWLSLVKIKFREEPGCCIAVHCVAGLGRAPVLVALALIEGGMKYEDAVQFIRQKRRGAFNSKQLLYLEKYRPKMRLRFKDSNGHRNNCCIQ
Assay: In vitro phosphatase assay (DiFMUP hydrolysis), PRL-1; also: test concentration or dose not given here
Format: biochemical
Conditions: FDA-approved drug screen; compared to DMSO
Where a name gives a salt, the structure may show the parent alone.
Here the recorded % Phosphatase Activity (compared to DMSO) PRL-1 is given for each entry.
READOUT_NAME: % Phosphatase Activity (compared to DMSO) PRL-1 (%)

> print(dat)
                                    compound  measured
 1  Clc1ccc(COC(Cn2ccnc2)c2ccc(Cl)cc2Cl)cc1 (centres unmarked) [Econazole nitrate]       107
 2  CC(C)NCC(O)c1cc(O)cc(O)c1 (centres unmarked) [Metaproterenol Sulfate]        98
 3  CC[N+](CC)(CC)CCOc1cccc(OCC[N+](CC)(CC)CC)c1OCC[N+](CC)(CC)CC [Gallamine Triethiodide]       104
 4  CN(C)[C@@H]1C(O)=C(C(N)=O)C(=O)[C@@]2(O)C(O)=C3C(=O)c4c(O)ccc(Cl)c4[C@@H](O)[C@H]3C[C@@H]12 [Demeclocycline HCl]        90
 5  CCOC(=O)[C@H]1O[C@@H]1C(=O)N[C@@H](CC(C)C)C(=O)NCCC(C)C [Aloxistatin]        87
 6  Cc1ccc(C(=O)Nc2ccc(CN3CCN(C)CC3)c(C(F)(F)F)c2)cc1C#Cc1cnc2cccnn12 [Ponatinib (AP24534)]       396
 7  CC(=O)NC1CCSC1=O (centres unmarked) [Citiolone]       114
 8  Nc1ccc2cc3ccc(N)cc3nc2c1 [Proflavine Hemisulfate]        81
 9  COc1cc2nc(N3CCN(C(=O)C4COc5ccccc5O4)CC3)nc(N)c2cc1OC (centres unmarked) [Doxazosin Mesylate]       441
10  CCOC(=O)C1=C(COCCN)NC(C)=C(C(=O)OC)C1c1ccccc1Cl.O=S(=O)(O)c1ccccc1 (centres unmarked) [Amlodipine besylate (Norvasc)]       152
11        O=C(O)CCCCCCCC(=O)O [Azelaic acid]        94

----------
Here the recorded % Phosphatase Activity (compared to DMSO) PRL-3 is given for each entry.
Biological target: recombinant PRL-3 (Homo sapiens, UniProt O75365)
Construct: 6xHis (N, cleaved yes); made in house; host or cells: E. coli One Shot BL21 Star
Sequence (O75365 whole entry): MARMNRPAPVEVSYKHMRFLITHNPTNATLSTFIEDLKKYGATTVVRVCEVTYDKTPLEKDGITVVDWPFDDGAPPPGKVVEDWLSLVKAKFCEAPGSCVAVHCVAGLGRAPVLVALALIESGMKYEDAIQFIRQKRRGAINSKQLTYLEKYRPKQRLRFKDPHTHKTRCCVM
Experiment: In vitro phosphatase assay (DiFMUP hydrolysis), PRL-3; also: test concentration or dose not given here
Format: biochemical
Conditions: FDA-approved drug screen; compared to DMSO
Counter-ions that a name gives are not always drawn.
READOUT_NAME: % Phosphatase Activity (compared to DMSO) PRL-3 (%)

MOLECULE	MEASURED
CC(C)(O)c1ccccc1CC[C@@H](SCC1(CC(=O)O)CC1)c1cccc(/C=C/c2ccc3ccc(Cl)cc3n2)c1 [Montelukast Sodium]	182
Nc1ncnc2c1ncn2[C@@H]1O[C@H](CO)[C@@H](O)[C@H]1O	87
Cc1c(OCC(F)(F)F)ccnc1C[S+]([O-])c1nc2ccccc2[nH]1 (stereo not shown)	59
OCCN(CCO)c1nc(N2CCCCC2)c2nc(N(CCO)CCO)nc(N3CCCCC3)c2n1	219
C[C@]12CCC3=C4CCC(=O)C=C4CC[C@H]3[C@@H]1CC[C@@]2(O)CC#N	72
CCOC(=O)c1ccc(N)cc1	84
Nc1nc(O)c2ncn(COC(CO)CO)c2n1	99
CCN(c1cc(-c2ccc(CN3CCOCC3)cc2)cc(C(=O)NCc2c(C)cc(C)[nH]c2=O)c1C)C1CCOCC1	95
CCOC(=O)CC(=O)N1CCSC1COc1ccccc1OC (stereo not shown)	87
Cc1ccnc2c1NC(=O)c1cccnc1N2C1CC1	111
CCCCOc1ccc(OCCCN2CCOCC2)cc1 [Pramoxine HCl]	74
Cc1cnc(C(=O)O)c[n+]1[O-]	95
CO[C@H]1/C=C/O[C@@]2(C)Oc3c(C)c(O)c4c(c3C2=O)C2=NC3(CCN(CC(C)C)CC3)NC2=C(NC(=O)/C(C)=C\C=C\[C@H](C)[C@H](O)[C@@H](C)[C@@H](O)[C@@H](C)[C@H](OC(C)=O)[C@@H]1C)C4=O	72
COc1cc(/C=C/C(=O)N2CCN(CC(=O)N3CCCC3)CC2)cc(OC)c1OC.O=C(O)/C=C\C(=O)O [Cinepazide maleate]	113
O=C(NC1CCN(CCCCC2(C(=O)NCC(F)(F)F)c3ccccc3-c3ccccc32)CC1)c1ccccc1-c1ccc(C(F)(F)F)cc1 [Lomitapide]	117
C[C@H]1O[C@@H](O[C@H]2[C@@H](O)C[C@H](O[C@H]3[C@@H](O)C[C@H](O[C@H]4CC[C@@]5(C)[C@H](CC[C@@H]6[C@@H]5C[C@@H](O)[C@]5(C)[C@@H](C7=CC(=O)OC7)CC[C@]65O)C4)O[C@@H]3C)O[C@@H]2C)C[C@H](O)[C@@H]1O	76
COc1ccc(C(=O)c2ccccc2)c(O)c1	93
CCCC(CCC)C(=O)O [Divalproex Sodium]	77
CCOC(=O)[C@H](CCc1ccccc1)N[C@@H](C)C(=O)N1C(=O)N(C)C[C@H]1C(=O)O [Imidapril HCl]	76
Cc1cc(C2CCCCC2)n(O)c(=O)c1	76
O=C(O)CCCc1ccc(N(CCCl)CCCl)cc1	77
CCCCCCCCCC(=O)O[C@H]1CC[C@H]2[C@@H]3CCC4=CC(=O)CC[C@@H]4[C@H]3CC[C@]12C [Nandrolone decanoate]	90
